Let's look at some compounds and their measured melting point.

Q. Record request: melting point value, item COc1ccc([N+](=O)[O-])c(NC(C)=O)c1
A. 129 °C

Q. Record request: melting point value, item CCCN(CCC)C(=O)CCn1c(-c2ccc(Cl)cc2)nc2cccnc21
A. 104 to 106 °C

---

property-measured: melting point

The cases that follow already have their melting point on record.
INSERT INTO assay_data (chem_smiles, property_measured, assay_value) VALUES
  ('CS(=O)(=O)NCc1cccc(-c2csc(N=C(N)N)n2)n1', 'melting point', '196 °C'),
  ('Cc1c(C#N)c(=O)[nH]c(=O)n1Nc1c(Cl)cc(Cl)cc1Cl', 'melting point', '> 305 °C'),
  ('O=C(O)c1ccc2[nH]cc(-c3cc4cccnc4[nH]3)c2c1', 'melting point', '> 300 °C'),
  ('COC(=O)c1cccc(CN2CCN(c3nc(C)c(C(C)=O)s3)C2=O)c1', 'melting point', '122 to 124 °C');

Q. Record request: melting point value, item Cc1cc(C)c(-c2cc3cnc(N)nc3nc2NC(=O)NC(C)(C)C)c(C)c1
A. 281 to 297 °C

Q. Record request: melting point value, item C[C@@H](O)CNC(=O)N1CC(c2ccc(C(F)(F)F)cc2)C1
A. 107 to 108 °C

---

property-measured: melting point

INSERT INTO measurements (molecule, property_measured, assay_value) VALUES
  ('N#Cc1ccc(-c2ccc(O)c(C(=O)O)c2)cc1', 'melting point', '227 °C');

Next, consider the following molecule.
Q. Record request: melting point value, item CCCS(=O)c1cc(OCCCS(=O)Cc2ccccc2)ccc1C (configuration not stated)
A. 92 to 94 °C

---

property-measured: melting point

INSERT INTO assay_data (compound, property_measured, assay_value) VALUES
  ('O=C(O)[C@@H]1O[C@@H](c2ccccc2)N(NS(=O)(=O)c2ccc([N+](=O)[O-])cc2)[C@H]1c1ccccc1', 'melting point', '61 to 65 °C');

Q. Record request: melting point value, item CC(=O)c1cc2c(c(C=O)c1O)CCCC2
A. 77.5 to 78.5 °C

Q. Record request: melting point value, item CN(C)Cc1cc(C(=O)c2ccc(Cl)s2)cc(C(C)(C)C)c1O
A. 137 to 138 °C

Q. Record request: melting point value, item COC1=CC(=O)C=C(Br)C1=O
A. 157 to 158 °C

Q. Record request: melting point value, item CN1C2CCCC1CC(NC(=O)c1cc(Cl)cc3nc(-c4ccccc4)oc13)C2 (centres undefined)
A. 199 to 201 °C

Q. Record request: melting point value, item O=C1c2ccccc2C(=O)N1c1ccc(N2C(=O)c3ccccc3C2=O)c(O)c1
A. > 300 °C

---

Let's look at some molecules and their measured melting point.

The cases that follow already have their melting point on record.
INSERT INTO results (molecule, assay_value) VALUES
  ('CNC(=O)c1cc2c(Oc3ccc(CO)cc3)cncc2s1', '195 to 196 °C'),
  ('C#Cc1cnn2c(C)cc(-c3ccc(C(F)(F)F)cc3)nc12', '89 to 90 °C'),
  ('CCOC(=O)C1=Cc2cc(Cl)cc(C=NO)c2OC1C(F)(F)F (stereo not drawn)', '187 to 188 °C'),
  ('CS(=O)(=O)c1ccc(-n2cc(C(F)F)nc2-c2ccc(Cl)cc2)cc1', '179 to 180 °C'),
  ('Cc1ccccc1N1CCc2nnc3c(C)cccc3c21', '135 to 137 °C'),
  ('NC1CCN(c2c(F)c(F)c3c(=O)c(C(=O)O)cn(C4CC4)c3c2F)C1 (stereo not drawn)', '290 to 292 °C'),
  ('O=C1Nc2ccc(Cl)cc2C1(Cl)c1ccccc1OC(F)(F)F (stereo not drawn)', '185 °C');

Next, consider the following molecule.
Q. Record request: melting point value, item CCCCCCCCCCCCCCCCCCOc1cc(OCCCOc2ccc(O)cc2)cc(C(=O)O)c1
A. 92 to 95 °C
